Assay: Drug level in epithelial lining fluid of healthy human at 500 mg, iv administered as 2-h infusion every 8 h after 4 hrs
Settings: read-out: Drug uptake
ENDPOINT: concentration at 4 h (ng/mL)
Give the quantity in ng/mL, number only.

Recorded concentration at 4 h for `Nc1nc(/C(=N/O)C(=O)N[C@@H]2C(=O)N3C(C(=O)O)=C(/C=C4\CCN([C@@H]5CCNC5)C4=O)CS[C@H]23)ns1` , please? 2000

====

Test: AUC in epithelial lining fluid of mouse
Type: ADME, tissue-based
ENDPOINT: AUC (ng·h/mL)
The reply should be a number in ng·h/mL, with the unit left off.

Bench note: what AUC did Nc1nc(/C(=N/O)C(=O)N[C@@H]2C(=O)N3C(C(=O)O)=C(/C=C4\CCN([C@@H]5CCNC5)C4=O)CS[C@H]23)ns1 [CEFTOBIPROLE] show? 46000
